biological target: Calcium-activated potassium channel subunit alpha-1 (Homo sapiens) + Leucine-rich repeat-containing protein 26 (Homo sapiens) (UniProt Q12791+Q2I0M4); test: modulators of BK channel variants, profiling panel, selectivity assay, cell-based, U2OS BacMam, thallium flux, beta subunits (AID 1259406); settings: F380Y/Slo1WT/gamma1, at 30 µM;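 further: initial slope of Thallos dye fluorescence rise after thallium is added; log ratio against the mean of 0.3% DMSO vehicle wells on the same plate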
Sequence (Q2I0M4 whole entry, looked up, one chain of several): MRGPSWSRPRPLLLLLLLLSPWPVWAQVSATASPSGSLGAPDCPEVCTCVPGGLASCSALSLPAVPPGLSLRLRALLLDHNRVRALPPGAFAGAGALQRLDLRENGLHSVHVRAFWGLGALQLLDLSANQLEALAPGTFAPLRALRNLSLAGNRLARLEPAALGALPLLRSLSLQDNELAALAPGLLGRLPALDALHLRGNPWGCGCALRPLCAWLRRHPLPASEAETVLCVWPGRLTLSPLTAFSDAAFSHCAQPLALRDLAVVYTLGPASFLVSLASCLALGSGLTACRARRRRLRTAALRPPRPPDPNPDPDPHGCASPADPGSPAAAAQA
Assign log fold change Tl+ flux to each entry below.
Answers are plain numbers.

>  <compound>
Cc1c(C(=O)CSc2n[nH]c(=O)n2C(C)c2ccccc2)sc2ccc(Cl)cc12 (stereo not given)

>  <result-type>
log fold change Tl+ flux

>  <measured-value>
0.0185

$$$$
>  <compound>
CCSc1ccc(-c2noc(C(C)(C)C)n2)cn1

>  <result-type>
log fold change Tl+ flux

>  <measured-value>
-0.00182

$$$$
>  <compound>
C=C1/C(=C\C=C2/CCC[C@]3(C)[C@@H]([C@H](C)/C=C/[C@@H](O)C4CC4)CC[C@@H]23)C[C@@H](O)C[C@@H]1O

>  <result-type>
log fold change Tl+ flux

>  <measured-value>
0.0831

$$$$
>  <compound>
CN(C)C=Nc1cc(Cl)c(-n2cccc2)cc1Oc1ccc(Cl)cc1

>  <result-type>
log fold change Tl+ flux

>  <measured-value>
0.0223

$$$$

// next item, log fold change Tl+ flux requested
Ask | For the compound shown here, `Cc1oc(S(=O)(=O)N2CCOCC2)cc1C(=O)Nc1ccc(F)cc1` , give the reported log fold change Tl+ flux.
Reply | 0.0253

----------
Assign normalised cell number to each entry below.
assay: differential killing of epithelial or mesenchymal cells, primary screen, imaging, PC-3E GFP, TEM4-18 mCherry, co-culture (AID 1345086); details: imaging cell counts, measured here: epithelial PC-3E GFP cell survival, at 1 µM;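 further: cells exposed to compound for 72 h before imaging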
Numbers only.

>  <molecule>
C=C1C[C@]23C[C@@]1(O)CC[C@H]2[C@@]12C=C[C@H](O)[C@](C)(C(=O)O1)[C@H]2[C@@H]3C(=O)O

>  <normalised cell number>
0.93

$$$$
>  <molecule>
C=C(C)[C@H]1CC=C(C(=O)O)CC1

>  <normalised cell number>
1.08

$$$$
>  <molecule>
Cc1c(C)c2c(c(C)c1O)CCC(C)(CCCC(C)CCCC(C)CCCC(C)C)O2 (stereo not given)

>  <normalised cell number>
0.82

$$$$
>  <molecule>
CC(CC(=O)N1CCOC1=O)N1C(=S)OC[C@@H]1Cc1ccccc1 (stereo not given in full)

>  <normalised cell number>
0.88

$$$$

// next item, normalised cell number requested
Ask | For the molecule shown here, CC1COc2c(N)c(F)cc3c(=O)c(C(=O)O)cn1c23 (stereo not given) , give the reported normalised cell number.
Reply | 1.07

----------
tested on: R275C/beta2Delta; experiment: modulators of BK channel variants, profiling panel, selectivity assay, cell-based, U2OS BacMam, thallium flux, beta subunits (AID 1259406); details: at 30 µM;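 further: initial slope of Thallos dye fluorescence rise after thallium is added; log ratio against the mean of 0.3% DMSO vehicle wells on the same plate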
Active and inactive are the calls of the source.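 The calls were made as follows: active = thallium flux through the channel raised or lowered by more than 3 SD from vehicle-only wells, actives on both sides; inactive = the rest.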
result-type: log fold change Tl+ flux

The cases that follow already have their log fold change Tl+ flux on record.
>  <compound>
O=C(CC1SC(=NC2CC3C=CC2C3)NC1=O)Nc1ccccc1Cl (configuration not stated)

>  <log fold change Tl+ flux>
0.032 (inactive)

$$$$
>  <compound>
CO[C@H]1C=CO[C@@]2(C)Oc3c(C)c(O)c4c(O)c(c(C=NN5CCN(C6CCCC6)CC5)c(O)c4c3C2=O)NC(=O)C(C)=CC=C[C@H](C)[C@H](O)[C@@H](C)[C@@H](O)[C@@H](C)[C@H](OC(C)=O)[C@@H]1C

>  <log fold change Tl+ flux>
0.0465 (inactive)

$$$$
>  <compound>
CSC(=S)NNC(=O)c1ccc(C(F)(F)F)cc1

>  <log fold change Tl+ flux>
0.0788 (inactive)

$$$$
>  <compound>
CC[C@H]1OC(=O)[C@H](C)[C@@H](O[C@H]2C[C@@](C)(OC)[C@@H](O)[C@H](C)O2)[C@H](C)[C@@H](O[C@@H]2O[C@H](C)C[C@H](N(C)C)[C@H]2O)[C@](C)(O)C[C@@H](C)CN(C)[C@H](C)[C@@H](O)[C@]1(C)O

>  <log fold change Tl+ flux>
-0.0452 (inactive)

$$$$

// each compound listed below needs its log fold change Tl+ flux
1. Cc1ccc(S(=O)(=O)NC(=O)NCc2csc3ccc(Cl)cc23)cc1
2. CCOC(=O)c1nn(-c2ccc(C(C)(C)C)cc2)c(=O)c(C#N)c1C

Reply |
1: 0.193 (active); 2: -0.219 (active)

Ask | For the compound shown here, `O=C(Nc1ccc(Cl)cc1)c1cnccc1C(F)(F)F` , give the reported log fold change Tl+ flux.
Reply | -0.00135 (inactive)
